ASSAY: Short-term plasma stability with and without esterase inhibitors
PARTICULARS: human, pH 7.4, Parent Compound Remaining (%), Esterase Inhibitors, 3 h, 37 °C, pH 7.4, BNPP and PMSF 500 µM each
PROPERTY_NAME: remaining at 3 h, 5 µM (%)
Number only, in %; omit the unit.

Sample answers from the record:
| COMPOUND | remaining at 3 h, 5 µM / % |
| --- | --- |
| COC(=O)[C@@H](NC(=O)c1nn(CCCCCF)c2ccccc12)C(C)C [(S)-5F-AMB-PINACA (10)] | 89.8 |
| COC(=O)[C@@H](NC(=O)c1cn(CC2CCCCC2)c2ccccc12)C(C)C [(S)-AMB-CHMICA (9)] | 90.5 |
| C=CCCCn1cc(C(=O)N[C@@H](C(=O)OC)C(C)C)c2ccccc21 [(R)-AMB-4en-PICA (7)] | 95.5 |
| C=CCCCn1nc(C(=O)N[C@@H](C(=O)OC)C(C)(C)C)c2ccccc21 [(R)-MDMB-4en-PINACA (5)] | 89.4 |

// moving on: another record for remaining at 3 h, 5 µM
Query: Given C=CCCCn1cc(C(=O)N[C@H](C(=O)OC)C(C)(C)C)c2ccccc21 [(S)-MDMB-4en-PICA (12)] , state its recorded remaining at 3 h, 5 µM.
Response: 89.4
